Taken from PubChem BioAssay AID1645875.

target: N-terminal Xaa-Pro-Lys N-methyltransferase 1 (Homo sapiens); assay: Orthogonal qHTS for Inhibitors of N-terminal methyltransferase 1 (NTMT1): ThioGlo Assay; conditions: NTMT1 SAHH-coupled ThioGlo fluorescence, 30 min; series mostly up to 84.5 µM
Inconclusive results are not listed. The source made the active and inactive calls. The call rests on the fitted dose curve; in most records, active means well fitted inhibition curve with a large enough effect; inconclusive means small, poorly fitted or top-dose-only effect; inactive means no such curve, though single readings can be large or run the other way.
Bench note: report the call from active, inactive

A selection of reference data follows.
MOLECULE	CATEGORY LABEL
NCC(O)C1CCCCCCC1 (centres undefined)	inactive
COc1ccc2cc3c(NC(=O)c4ccco4)nn(C)c3nc2c1	active
COc1cc2nc(N3CCCC3)nc(NC3CC3)c2cc1OC	inactive
CCn1c(=O)c(-c2ccn[nH]2)cc2c(C)nc(N)nc21	active

Turning now to a further molecule:
Each molecule tested received a call. Report the one for `COc1cc(CCc2ccc(OCC=C(C)C)cc2)cc(OC)c1OC` .
inactive

---

molecular target: N-terminal Xaa-Pro-Lys N-methyltransferase 1 (Homo sapiens); assay: Orthogonal qHTS for Inhibitors of N-terminal methyltransferase 1 (NTMT1): ThioGlo Assay; details: NTMT1 SAHH-coupled ThioGlo fluorescence, 30 min; series mostly up to 84.5 µM
Records with an inconclusive call do not appear. Activity calls are given as the source filed them. Calls come from the whole dose curve; as a rule, active = well fitted inhibition curve with a large enough effect; inconclusive = small, poorly fitted or top-dose-only effect; inactive = no such curve, though single readings can be large or run the other way.
Outcome field: choose from YES for active, NO for inactive

A selection of reference data follows.
> print(dat)
                                    compound  category.label
 1  Cc1cccc(NC(=O)c2c(NC(=O)c3ccccc3)sc3c2CCCC3)c1              NO
 2  NC(=O)c1cccc(-c2cc(OC(=O)NC3CCCCC3)ccc2O)c1              NO
 3  O=C([C@@H]1CCCN(c2ccc3[nH]c(C4(n5cc(Cl)cn5)CC4)nc3n2)C1)N1CCCC1             YES
 4   c1cc(CN2CCCCC2)cc(OCCCNc2nc3ccccc3s2)c1              NO
 5  C[N+]1(C)CCC(OC(=O)C(c2ccccc2)c2ccccc2)CC1             YES
 6  COc1cc2c(NC3CCN(C(C)C)CC3)nc(N3CCCN(c4ccccc4)CC3)nc2cc1OCCCN1CCCC1             YES
 7  Cc1cc2c(C(C)C)c(O)c(O)c(C=O)c2c(O)c1-c1c(C)cc2c(C(C)C)c(O)c(O)c(C=O)c2c1O             YES
 8    Cc1cc(O)c2c(c1)C(=O)c1cc(O)cc(O)c1C2=O             YES
 9  COc1cc2c(NC3CCN(C(C)C)CC3)nc(N3CCCCCC3)nc2cc1OCCCN1CCCC1             YES
10  Cc1ccc(S(=O)(=O)Nc2cnccc2C(=O)Nc2nc(-c3cccc(C)c3)cs2)cc1              NO

Kindly provide the recorded test outcome for the following compound: `Cc1ccnc(NC(=S)N2CCN(c3cc(C(F)(F)F)cc(C(F)(F)F)c3)CC2)c1`
YES

Check the results log: what was the call for `Cc1[nH]c(/C=C2\C(=O)Nc3cc(-c4ccccc4)ccc32)c(C)c1CCC(=O)O` ?
YES

Record lookup: outcome of this test for `OCc1ccc(-c2ccc(-c3ccc(CO)s3)o2)s1` ?
YES

// param item: `CN(C)c1ccc(Nc2nc(N)n(C(=O)c3c(F)cccc3F)n2)cc1` ; yields the recorded call
YES

Which outcome was entered for the compound `COc1cc(N2CCC(O)CC2)ccc1Nc1nc(Nc2ccccc2S(=O)(=O)C(C)C)c2[nH]cnc2n1` in this test?
YES

What classification did `CCN1CCCN(c2nc(NC3CCN(C(C)C)CC3)c3cc(OC)c(OCCCN4CCCCC4)cc3n2)CC1` end up with in this test?
YES

GET /call?item= `COc1cc(N2CCC(N3CCN(C)CC3)CC2)ccc1Nc1ncc(Cl)c(-c2c[nH]c3ccccc23)n1` returns the recorded outcome of this test.
YES

What did the test return for CN(C)CCCC1(c2ccc(F)cc2)OCc2cc(C#N)ccc21 (stereo not given) ?
NO

Record lookup: outcome of this test for `COc1ccc(C2=Nn3c(nnc3-c3ccccc3C)SC2)cc1OC` ?
YES

Hey, what did the test say about CC[C@@H](C)Nc1cc(C(=O)NC2CC3CC[C@@H](C2)N3c2ccc(C(=O)C3CC3)cn2)c(C)cc1C(N)=O (stereo not given in full) ?
YES

---

molecular target: N-terminal Xaa-Pro-Lys N-methyltransferase 1 (Homo sapiens) (UniProt Q9BV86); assay: Orthogonal qHTS for Inhibitors of N-terminal methyltransferase 1 (NTMT1): ThioGlo Assay; settings: NTMT1 SAHH-coupled ThioGlo fluorescence, 30 min; series mostly up to 84.5 µM
Sequence (Q9BV86 whole entry, looked up): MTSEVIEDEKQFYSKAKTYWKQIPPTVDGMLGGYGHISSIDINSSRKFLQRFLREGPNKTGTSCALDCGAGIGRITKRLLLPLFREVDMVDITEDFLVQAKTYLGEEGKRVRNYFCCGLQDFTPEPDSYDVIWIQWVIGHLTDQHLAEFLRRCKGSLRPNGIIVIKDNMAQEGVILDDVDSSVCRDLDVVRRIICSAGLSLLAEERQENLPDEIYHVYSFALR
Records with an inconclusive call do not appear. Activity calls are given as the source filed them. Calls follow the shape of the dose curve; as a rule, active = well fitted inhibition curve with a large enough effect; inconclusive = small, poorly fitted or top-dose-only effect; inactive = no such curve, though single readings can be large or run the other way.
Pick from 1.0 for active, 0.0 for inactive when you respond.

Before answering, review these 3 worked examples.
> print(dat)
                                   molecule                         system.under.test  category.label
1  FC(F)(F)c1cccc(N2CCN(C(=S)Nc3ccccn3)CC2)c1  N-terminal Xaa-Pro-Lys N-methyltransferase 1 (Homo sapiens) (UniProt Q9BV86)             1.0
2  Cc1cccc(C)c1OCC(N)C(C)C (stereo not given)  N-terminal Xaa-Pro-Lys N-methyltransferase 1 (Homo sapiens) (UniProt Q9BV86)             1.0
3  CC(C)c1cc2c(c(O)c1O)[C@@]13CCCC(C)(C)[C@@H]1[C@H](OC3=O)C2=O  N-terminal Xaa-Pro-Lys N-methyltransferase 1 (Homo sapiens) (UniProt Q9BV86)             1.0

Answer briefly: the call reported for `O=C1NC(=O)/C(=C/c2ccc(-c3ccc(F)cc3O)o2)S1` in this assay.
1.0

Could you check what this test reported for COc1ccc(-c2cc3c(C)nc(N)nc3n(C3CCC(OCCO)CC3)c2=O)cn1 (stereo not given) ?
1.0

Tell me the assay call for `COc1cc2nc(N3CCOCC3)nc(NC(C)C)c2cc1OC` please.
0.0

What was the test verdict on `C[C@]12C[C@H](O)[C@H]3[C@@H](CCC4=CC(=O)CC[C@@]43C)[C@@H]1CC[C@@H]2C(=O)CO` ?
0.0

Just curious, what result did `NCCOc1cc(C(=O)Nc2cc(OCCN)c3ccccc3n2)nc(C(=O)Nc2cc(OCCN)c3ccccc3n2)c1` get here?
1.0

Field: outcome | Entry: `N.N.N.N.N.N.N.N.N.N.N.N.N.N.O.O.[Ru+4].[Ru+5].[Ru+5]`
1.0

Call for entry `OCCn1cc(-c2cnc3nnn(Cc4ccc5ncccc5c4)c3n2)cn1` :
1.0

---

biological target: N-terminal Xaa-Pro-Lys N-methyltransferase 1 (Homo sapiens) (UniProt Q9BV86); test: Orthogonal qHTS for Inhibitors of N-terminal methyltransferase 1 (NTMT1): ThioGlo Assay; details: NTMT1 SAHH-coupled ThioGlo fluorescence, 30 min; series mostly up to 84.5 µM
Inconclusive results are not listed. The source made the active and inactive calls. Calls come from the whole dose curve; as a rule, active = well fitted inhibition curve with a large enough effect; inconclusive = small, poorly fitted or top-dose-only effect; inactive = no such curve, though single readings can be large or run the other way.
Choose one outcome from this list and give only that: active, inactive

COMPOUND	SYSTEM UNDER TEST	CATEGORY LABEL
Cc1cc(C)c2c(N)c(C(=O)NCc3ccc(Cl)cc3)sc2n1	N-terminal Xaa-Pro-Lys N-methyltransferase 1 (Homo sapiens) (UniProt Q9BV86)	inactive
N#Cc1ccc(Nc2nc(-c3ccc(O)cc3O)cs2)cc1C(F)(F)F	N-terminal Xaa-Pro-Lys N-methyltransferase 1 (Homo sapiens) (UniProt Q9BV86)	active
O=C(NCCN1CCCC1)c1cc(-c2ccc(CN3CCOCC3)cc2)nc2ccc(F)cc12	N-terminal Xaa-Pro-Lys N-methyltransferase 1 (Homo sapiens) (UniProt Q9BV86)	active
CC/C(=C(\c1ccccc1)c1ccc(OCCN(C)C)cc1)c1ccccc1	N-terminal Xaa-Pro-Lys N-methyltransferase 1 (Homo sapiens) (UniProt Q9BV86)	inactive

Each compound tested received a call. Report the one for `O=C(O)c1ccnc2cc(-c3nc4ccccc4n3CCN3CCCCC3)sc12` .
active

Could you please tell me the result logged for `C#Cc1cccc(Nc2ncnc3cc(OC)c(OCCCCCCC(=O)NO)cc23)c1` in this assay?
active

Kindly provide the recorded test outcome for the following compound: `C[C@]12CC[C@@H]3c4ccc(O)c(O)c4CC[C@H]3[C@@H]1CCC2=O`
active

Outcome logged for COc1c(C(C)C)c(O)c(O)c2c1C(OC)[C@H]1OC(=O)[C@@]23CCCC(C)(C)[C@H]13 (some centres undefined) in this assay:
active

Field: outcome | Entry: `COc1cc2c(NC3CCN(C(C)C)CC3)nc(N3CCCN(CC4CCCCC4)CC3)nc2cc1OCCCN1CCCC1`
active

Entry `COc1ccc(C2=Nn3c(nnc3-c3ccccc3F)SC2)cc1OC1CCCC1` : call = ?
inactive

What classification did `Fc1cc(-c2cccc3ncc(-c4cnn(C5CCNCC5)c4)nc23)cc(F)c1CN1CCOCC1` end up with in this test?
active

Just curious, what result did `CC[C@@H](c1ccc(F)c(F)c1)n1c(C(=O)OC)c(-c2ccno2)[nH]c1=S` get here?
active
